Where a SMILES comes first, the peptide text is derived from it. Bridges are numbered along the chain shown (N, C = ends).
# Lookup of reported solubility keyed by entry

| compound | solubility |
| --- | --- |
| CC[C@H](C)[C@@H]1NC(=O)[C@H](Cc2ccc(O)cc2)NC(=O)CSC[C@@H](C(=O)N[C@H](C(N)=O)[C@@H](C)O)NC(=O)[C@H](Cc2ccc(O)cc2)NC(=O)[C@H]([C@@H](C)CC)NC(=O)[C@H](C(C)C)NC(=O)[C@H](Cc2ccc(O)cc2)NC(=O)CNC(=O)[C@@H]2CCCN2C(=O)[C@H](Cc2c[nH]c3ccccc23)NC(=O)[C@H]([C@@H](C)CC)NC(=O)[C@H](Cc2c[nH]c3ccccc23)NC1=O [WL2] ({CH2CO}-YIWIWPGYVIYCT-NH2; thioether N-12) | ~30 µM |

What value of solubility has been reported for the following compound? CC[C@H](C)[C@@H]1NC(=O)[C@H](Cc2c[nH]c3ccccc23)NC(=O)[C@H]([C@@H](C)CC)NC(=O)[C@H](C(C)C)NC(=O)[C@H](Cc2ccc(O)cc2)NC(=O)CSC[C@@H](C(=O)N[C@H](C(N)=O)[C@@H](C)O)NC(=O)[C@H](Cc2ccc(O)cc2)NC(=O)[C@H](Cc2ccc(O)cc2)NC(=O)[C@H](Cc2ccccc2)NC(=O)[C@H](Cc2c[nH]cn2)NC(=O)[C@H](CC(N)=O)NC(=O)[C@@H]2CCCN2C(=O)[C@H](Cc2c[nH]c3ccccc23)NC1=O [WL4] ({CH2CO}-YVIWIWPNHFYYCT-NH2; thioether N-13)
~30 µM

Sourced from patent US20210061859A1
